Where do these numbers come from? They come from patent US11066399B2.

molecular target: ferroportin (Fpn) (Mus musculus, UniProt Q9JHI9); test: Hepcidin Internalization Assay (J774); details: average (AVE) of multiple measurements; TMR-hepcidin 25 nM, J774 cells
Sequence (Q9JHI9 whole entry): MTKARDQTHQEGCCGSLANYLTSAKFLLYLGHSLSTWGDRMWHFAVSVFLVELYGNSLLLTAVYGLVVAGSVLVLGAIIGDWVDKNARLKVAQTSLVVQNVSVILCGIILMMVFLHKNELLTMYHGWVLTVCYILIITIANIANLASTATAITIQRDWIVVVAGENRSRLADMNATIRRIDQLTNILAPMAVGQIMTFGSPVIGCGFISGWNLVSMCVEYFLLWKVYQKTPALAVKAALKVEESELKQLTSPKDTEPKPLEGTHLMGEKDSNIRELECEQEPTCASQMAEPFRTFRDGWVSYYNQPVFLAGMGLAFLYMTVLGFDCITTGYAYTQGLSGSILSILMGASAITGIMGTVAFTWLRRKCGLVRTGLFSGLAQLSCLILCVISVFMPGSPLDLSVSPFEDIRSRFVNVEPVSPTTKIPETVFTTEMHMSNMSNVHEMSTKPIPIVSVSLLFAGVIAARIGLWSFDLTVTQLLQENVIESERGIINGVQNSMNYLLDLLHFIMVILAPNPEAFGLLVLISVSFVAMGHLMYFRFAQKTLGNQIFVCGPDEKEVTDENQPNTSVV
In plain terms, low IC50, meaning strictly below 60 nM, gives Yes, and everything else gives No.

Below 60 nM on IC50? Entry Cc1cccnc1CNC(=O)c1csc(CCNCc2nc3ccccc3[nH]2)n1
Yes

Below 60 nM on IC50? Entry O=C(NCc1ncccc1F)c1cnc(C2CN(CCc3nc4cc(F)ccc4[nH]3)C2)o1
No

Below 60 nM on IC50? Entry O=C(NCc1ccccn1)c1csc2c1CCN(CCc1nc3ccccc3[nH]1)C2
No

Below 60 nM on IC50? Entry O=C(NCc1ccccc1F)c1coc(C2CN(CCCc3nc4ccccc4[nH]3)C2)n1
No

Below 60 nM on IC50? Entry O=C(NCc1ncccc1F)c1csc(CCN2CCn3c(nc4ccccc43)C2)n1
No

Below 60 nM on IC50? Entry Cc1nc(CCNCCc2nc3ccccc3[nH]2)sc1C(=O)NCc1ncccc1F
No

Below 60 nM on IC50? Entry O=C(NCc1ccccn1)c1noc(CCNCCc2nc3ccccc3[nH]2)n1
No

Below 60 nM on IC50? Entry O=C(NCc1ncccc1F)c1cnc(CCNCCc2nc3ccccc3[nH]2)o1
Yes

Below 60 nM on IC50? Entry O=C(NCc1ncccc1F)c1cnc(CCNCc2nc3ccccc3[nH]2)o1
No

Below 60 nM on IC50? Entry O=C(NCc1ncccc1F)c1cnc(C2CN(Cc3nc4ccccc4[nH]3)C2)o1
No

Below 60 nM on IC50? Entry O=C(NCc1ncccc1F)c1cnn(CCNCCc2cc3ccccc3[nH]2)c1
Yes
